Reported IC50 values follow for various molecules
# Test system: Trypanosoma cruzi
# experiment: WHO-TDR: Chagas disease
# Type: functional, organism-based, Homo sapiens
# condition: MRC5
Output spec: scalar in µg/mL, unitless text.

Field: example entries. Status: answers known.
[
  {
    "molecule": "Cc1ccc(NC(=O)CSc2nncc(=O)[nH]2)cc1Cl",
    "IC50 (µg/mL)": 2.99
  },
  {
    "molecule": "CCOC(=O)CNC(=O)CSc1nnc(NC(=O)c2ccccc2Cl)s1",
    "IC50 (µg/mL)": 4.41
  },
  {
    "molecule": "CN(Cc1ccco1)S(=O)(=O)c1ccc(C(=O)Nc2nnc(-c3ccccc3Cl)o2)cc1",
    "IC50 (µg/mL)": 0.465
  },
  {
    "molecule": "O=C(Nc1nnc(-c2ccc3c(c2)OCCO3)o1)c1cc(-c2ccccc2)nc2ccccc12",
    "IC50 (µg/mL)": 0.434
  },
  {
    "molecule": "C/C=C/Cn1c(=O)c2c(nc3n(C(C)c4ccccc4)c(C)cn23)n(C)c1=O (stereo not drawn)",
    "IC50 (µg/mL)": 3.82
  }
]

Kindly review the next molecule as well.
Tested system Trypanosoma cruzi; IC50 recorded for CCn1nnc2c(N3CCN(C(c4ccccc4)c4ccccc4)CC3)ncnc21 was 3.62
